assay.notes: The drug is tested on Z-019 corresponding to rat gut metagenome with ENA study accession number: PRJEB37062 and ENA sample accession number: ERS12561818 for biotransformation under anaerobic condition. The drug concentrations were measured over 9 timepoints collected between 0 and 24 hours of incubation by liquid-chromatography-coupled mass spectrometry (LC–MS); also: call rule not given here
test.context: 2 µM

compound: O=C(O)CCC(=O)O.O=C(O[C@H]1CN2CCC1CC2)N1CCc2ccccc2[C@@H]1c1ccccc1 [SOLIFENACIN SUCCINATE]
Bacterial Biotransformation: Compound NOT metabolized
//
compound: CCOc1ccc2nc(S(N)(=O)=O)sc2c1 [ETHOXZOLAMIDE]
Bacterial Biotransformation: Compound NOT metabolized
//
compound: CC(=O)OCC(=O)[C@@]1(OC(C)=O)[C@@H](C)C[C@H]2[C@@H]3C[C@H](F)C4=CC(=O)C=C[C@]4(C)[C@@]3(F)[C@@H](O)C[C@@]21C [DIFLORASONE DIACETATE]
Bacterial Biotransformation: Compound NOT metabolized

###

test.context: human gut metagenome, 24 h, 2 µM
metric: Bacterial Biotransformation

Completed entries (count: 5):
molecule: CCOc1ccc2nc(S(N)(=O)=O)sc2c1 [ETHOXZOLAMIDE]
test.value: Compound NOT metabolized
//
molecule: Nc1nc(NC2CC2)c2ncn([C@H]3C=C[C@@H](CO)C3)c2n1.Nc1nc(NC2CC2)c2ncn([C@H]3C=C[C@@H](CO)C3)c2n1.O=S(=O)(O)O [ABACAVIR SULFATE]
test.value: Compound NOT metabolized
//
molecule: CN(C)C(=O)Oc1cc(OC(=O)N(C)C)cc(C(O)CNC(C)(C)C)c1 (configuration not stated) [BAMBUTEROL]
test.value: Compound metabolized
//
molecule: CC(NC(C)(C)C)C(=O)c1cccc(Cl)c1 (configuration not stated) [BUPROPION]
test.value: Compound NOT metabolized
//
molecule: CC(N)C12CC3CC(CC(C3)C1)C2 (configuration not stated) [RIMANTADINE]
test.value: Compound NOT metabolized

## Task Bacterial Biotransformation for O=C(NC(Cc1cc(=O)[nH]c2ccccc12)C(=O)O)c1ccc(Cl)cc1 (configuration not stated) [REBAMIPIDE] ?
## Result Compound metabolized

## Task Entry to check: CC(=O)O[C@H]1C(=O)[C@@]2(C)[C@H]([C@H](OC(=O)c3ccccc3)[C@]3(O)C[C@H](OC(=O)[C@H](O)[C@@H](NC(=O)c4ccccc4)c4ccccc4)C(C)=C1C3(C)C)[C@]1(OC(C)=O)CO[C@@H]1C[C@@H]2O [PACLITAXEL]
## Result Compound NOT metabolized

###

test.context: human gut metagenome, 24 h, 2 µM
metric: Bacterial Biotransformation

compound: N#Cc1ccc2c(c1)N(CCCN1CCC(O)CC1)c1ccccc1S2
Bacterial Biotransformation: Compound NOT metabolized
--
compound: O=C1CN2Cc3c(ccc(Cl)c3Cl)N=C2N1 [ANAGRELIDE]
Bacterial Biotransformation: Compound NOT metabolized
--
compound: COc1ccc(Cc2nccc3cc(OC)c(OC)cc23)cc1OC
Bacterial Biotransformation: Compound metabolized
--
compound: CCCN(CCC)CCc1cccc2c1CC(=O)N2
Bacterial Biotransformation: Compound NOT metabolized
--
compound: O=C1N=C([O-])NC1(c1ccccc1)c1ccccc1.[Na+] [PHENYTOIN SODIUM]
Bacterial Biotransformation: Compound NOT metabolized
--
compound: CC(=O)OCC(=O)NCCCOc1cccc(CN2CCCCC2)c1 [ROXATIDINE ACETATE]
Bacterial Biotransformation: Compound metabolized
--
compound: CC(C)(C)NCC(O)COc1cccc2c1CC(O)C(O)C2 (stereo not drawn)
Bacterial Biotransformation: Compound NOT metabolized
--
compound: COc1cc(C(=O)NCc2ccc(OCCN(C)C)cc2)cc(OC)c1OC [TRIMETHOBENZAMIDE]
Bacterial Biotransformation: Compound NOT metabolized

## Task State the recorded Bacterial Biotransformation for this entry: COc1cc2nc(N3CCN(C(=O)C4COc5ccccc5O4)CC3)nc(N)c2cc1OC.CS(=O)(=O)O (stereo not drawn) [DOXAZOSIN MESYLATE]
## Result Compound NOT metabolized

## Task Try CCCC(C)(COC(N)=O)COC(=O)NC(C)C (stereo not drawn) next.
## Result Compound NOT metabolized

## Task Proceed to CC(C)NCC(O)COc1ccc(CC(N)=O)cc1 (stereo not drawn)
## Result Compound NOT metabolized

## Task What about this compound? CCOc1ccc2nc(S(N)(=O)=O)sc2c1 [ETHOXZOLAMIDE]
## Result Compound NOT metabolized

## Task For CCN1CCCC1CNC(=O)c1cc(S(=O)(=O)CC)c(N)cc1OC (stereo not drawn) [AMISULPRIDE] then?
## Result Compound NOT metabolized

## Task What would you report for CN1[C@@H]2CC[C@H]1C[C@@H](OC(=O)[C@H](CO)c1ccccc1)C2 ?
## Result Compound NOT metabolized

## Task Queued: CN(C)C(=O)Oc1cc(OC(=O)N(C)C)cc(C(O)CNC(C)(C)C)c1 (stereo not drawn)
## Result Compound metabolized
